- Tested system: TNFa/TNFRI interaction (Homo sapiens)
- Assay procedure: TNFa/TNFRI interaction displacement test
- Type: binding
- Assay context: Compound EC50 minus SPD304 EC50
Rule: 1 for Displacement EC50 TNFa in presence of compound: Difference not less than 8 ng/mL, 0 for anything less.

* FC(F)(F)c1cccc(-n2cc(CN(CCCCNC3CCCCC3)Cc3cccnc3)c3ccccc32)c1 | 0
* FC(F)(F)c1cccc(-n2cc(CN(Cc3ccncc3)CC3CCCN(C4CCCCC4)C3)c3ccccc32)c1 (stereo not drawn) | 0
* FC(F)(F)c1cccc(-n2cc(CN(Cc3ccccn3)CC3CCCN(C4CCCCC4)C3)c3ccccc32)c1 (stereo not drawn) | 1
* O=S(=O)(c1ccccc1)n1cc(CN(CCCCNC2CCCCC2)Cc2ccncc2)c2ccccc21 | 0
* CN(CCCCN(Cc1cccnc1)Cc1cn(-c2cccc(C(F)(F)F)c2)c2ccccc12)C1CCCCC1 | 0
* CN(CCCN(Cc1cccnc1)Cc1cn(-c2cccc(C(F)(F)F)c2)c2ccccc12)C1CCCCC1 | 0
* O=S(=O)(c1ccccc1)n1cc(CN(Cc2ccccn2)CC2CCCN(C3CCCCC3)C2)c2ccccc21 (stereo not drawn) | 1
* Fc1ncccc1CN(Cc1cn(-c2cccc(C(F)(F)F)c2)c2ccccc12)CC1CCCN(C2CCCCC2)C1 (stereo not drawn) | 1
* CN(CCCCN(Cc1ccncc1)Cc1cn(-c2cccc(C(F)(F)F)c2)c2ccccc12)C1CCCCC1 | 0
* CN(CCCCCN(Cc1cccnc1)Cc1cn(-c2cccc(C(F)(F)F)c2)c2ccccc12)C1CCCCC1 | 0
* O=S(=O)(c1ccccc1)n1cc(CN(CCCNC2CCCCC2)Cc2ccncc2)c2ccccc21 | 1
* CN(CCCN(Cc1cccnc1)Cc1cn(S(=O)(=O)c2ccccc2)c2ccccc12)C1CCCCC1 | 0

###

- Tested system: TNFa/TNFRI interaction (Homo sapiens, UniProt P01375)
- Sequence (P01375 77-233 limits assumed): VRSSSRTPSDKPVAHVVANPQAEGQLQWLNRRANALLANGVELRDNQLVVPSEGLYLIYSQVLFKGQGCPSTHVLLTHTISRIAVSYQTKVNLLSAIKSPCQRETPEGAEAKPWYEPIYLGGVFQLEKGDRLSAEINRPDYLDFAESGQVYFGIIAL
- Assay procedure: TNFa/TNFRI interaction displacement test;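 for Displacement EC50 TNFa in presence of compound: Difference: SPD304 reference at 20 µM final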
- Assay type: binding
- Assay context: Compound EC50 minus SPD304 EC50
Rule: met for Displacement EC50 TNFa in presence of compound: Difference not less than 7 ng/mL, not met for anything less.

• O=S(=O)(c1ccccc1)n1cc(CN(Cc2ccnc(F)c2)CC2CCCN(C3CCCCC3)C2)c2ccccc21 (centres unmarked) = met
• CN(CCCCCN(Cc1ccncc1)Cc1cn(-c2cccc(C(F)(F)F)c2)c2ccccc12)C1CCCCC1 = not met
• O=S(=O)(c1ccccc1)n1cc(CN(Cc2cccnc2)CC2CCCN(C3CCCCC3)C2)c2ccccc21 (centres unmarked) = met
• O=S(=O)(c1ccccc1)n1cc(CN(CCCCNC2CCCCC2)Cc2cccnc2)c2ccccc21 = not met
• FC(F)(F)c1cccc(-n2cc(CN(CCCNC3CCCCC3)Cc3ccncc3)c3ccccc32)c1 = met

###

Measured Displacement (%) accompanies every entry in the list below.
- Tested system: TNFa/TNFRI interaction (Homo sapiens, UniProt P01375)
- Assay procedure: TNFa/TNFRI interaction displacement test
- Assay type: binding
- Assay context: compounds at 50 μM; human TNFRI 100 ng/ml
Readout: Displacement (%)

- O=S(=O)(c1ccccc1)n1cc(CN(CCOCCNC2CCCC2)Cc2cccnc2F)c2ccccc21: 159
- CCN(CCOCCN(Cc1cccnc1F)Cc1cn(S(=O)(=O)c2ccccc2)c2ccccc12)C1CCCCC1 [Compound 93]: 160
- CN(CCCCCN(Cc1ccnc(F)c1)Cc1cn(S(=O)(=O)c2ccccc2)c2ccccc12)C1CCCCC1: 115
- CN(CCCCCN(Cc1ccc(F)nc1)Cc1cn(S(=O)(=O)c2ccccc2)c2ccccc12)C1CCCCC1: 126
- O=S(=O)(c1ccccc1)n1cc(CN(CCCCCNC2CCCCC2)Cc2cccc(F)n2)c2ccccc21: 91
- CCCN(CCOCCN(Cc1cccnc1F)Cc1cn(S(=O)(=O)c2ccccc2)c2ccccc12)C1CCCCC1 [Compound 101]: 152
- O=S(=O)(NCCCCN(Cc1cccnc1F)Cc1cn(S(=O)(=O)c2ccccc2)c2ccccc12)N1CCOCC1: 18
